The values you see were collected from patent US20190225692A1.

- target-under-test: T1, HLA-A2/E7 (11-19) tetramer (human; HPV 16)
- T1 construct: also called E7(11-19) peptide-MHC tetramer; E7 (11-19)-loaded tetramer
- test-name: tetramer flow cytometry; transfected 1:1 CD4+ and CD4+/CD8+ Jurkat-derived cells;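 further: cells transiently transfected with TCR plasmids, stained 48 h later with HLA-A*02:01 peptide-MHC tetramer plus anti-CD8 antibody, read by flow cytometry to assess CD8-independent tetramer binding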

binder	% cells in E7 tet+/CD8+ quadrant
TCR 36 (codon optimized, cysteine modified version) (TCR, V domains shown) V domain 1: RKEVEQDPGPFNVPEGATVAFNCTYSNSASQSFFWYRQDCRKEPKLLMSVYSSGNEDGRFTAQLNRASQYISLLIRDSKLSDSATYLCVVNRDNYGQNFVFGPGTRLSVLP V domain 2: EPEVTQTPSHQVTQMGQEVILRCVPISNHLYFYWYRQILGQKVEFLVSFYNNEISEKSEIFDDQFSVERPDGSNFTLKIRSTKLEDSAMYFCAMTGRSNYEQYFGPGTRLTVTE	23.4%
TCR 46 (codon optimized, cysteine modified version) (TCR, V domains shown) V domain 1: AQSVTQLDSQVPVFEEAPVELRCNYSSSVSVYLFWYVQYPNQGLQLLLKYLSGSTLVKGINGFEAEFNKSQTSFHLRKPSVHISDTAEYFCAVSPSSGTYKYIFGTGTRLKVLA V domain 2: GAGVSQTPSNKVTEKGKYVELRCDPISGHTALYWYRQSLGQGPEFLIYFQGTGAADDSGLPNDRFFAVRPEGSVSTLKIQRTERGDSAVYLCASSLYLGGSETQYFGPGTRLLVLE	1.27%
TCR 32 (codon optimized, cysteine modified version) (TCR, V domains shown) V domain 1: TQLLEQSPQFLSIQEGENLTVYCNSSSVFSSLQWYRQEPGEGPVLLVTVVTGGEVKKLKRLTFQFGDARKDSSLHITAAQPGDTGLYLCAGGSNYKLTFGKGTLLTVNP V domain 2: DSGVTQTPKHLITATGQRVTLRCSPRSGDLSVYWYQQSLDQGLQFLIQYYNGEERAKGNILERFSAQQFPDLHSELNLSSLELGDSALYFCASSVGGDHSDEQFFGPGTRLTVLE	25.3%
